- experimentalDetails: yeast display, Sf9 membrane polyspecificity reagent, FACS + sequencing; frameworks hold sequencing errors

| sequenceInput | polyreactivity (PSR sort gate) |
| --- | --- |
| QVQLVESGGGLVQAGGSLRLSCAASGRIFYHNAMGWYRQAPGKERELVAAIRWSGGSTYYADSEKGRFTISRDNAKNTVYLLMKSLKPEDTAVYYWATDVPIREIDEFGYWGQGTQVTVSS | low polyreactivity |
| QVQLVESGGGLVQAGGSLRLSCAASGRSFYFNAMGWYRQAPGKERELVATISSSSTTYADSVKRRFTISRDNAKNTVYLQMTSLKPEDTAVYYCAARLGTYGEWGRTSYLRWYDYWGQGTQVTVSS | low polyreactivity |
| QVQLVESGGGLVQAGGSLRISCAASGLIIAYAMGWYRPAPGKERELVAASSGRDGSTYYADSVKGRFTISRDNAKNTVYLHMNSLKPEATAVYYCAKRISYLPVEMDYWGQGTQLTVSS | low polyreactivity |
